Experiment: Kinetic solubility of the compound at pH 6.5
Format: physicochemical
Details: buffer, read-out: Kinetic_solubility

[
  {
    "CHEMICAL_STRING": "CC(C)OC(=O)N1CCC(n2ncc3c(Oc4ccc(S(C)(=O)=O)cc4)ncnc32)CC1",
    "MEASURE_UNIT": "µg/mL",
    "BOUND_SIGN": "<",
    "solubility kinetic": 1
  },
  {
    "CHEMICAL_STRING": "CC(C)CC(=O)N1CCC(n2ncc3c(Oc4ccc(S(C)(=O)=O)cc4)ncnc32)CC1",
    "MEASURE_UNIT": "µg/mL",
    "BOUND_SIGN": "=",
    "solubility kinetic": 32
  },
  {
    "CHEMICAL_STRING": "CS(=O)(=O)c1ccc(Oc2ncnc3c2cnn3C2CCN(Cc3ccc(C(F)(F)F)cc3)CC2)cc1",
    "MEASURE_UNIT": "µg/mL",
    "BOUND_SIGN": "<",
    "solubility kinetic": 1
  },
  {
    "CHEMICAL_STRING": "CC(C)(C)OC(=O)N1CCC(n2ncc3c(Nc4ccc(S(C)(=O)=O)cc4F)ncnc32)CC1",
    "MEASURE_UNIT": "µg/mL",
    "BOUND_SIGN": "=",
    "solubility kinetic": 8
  },
  {
    "CHEMICAL_STRING": "CC(C)(C)OC(=O)N1CCC(n2ncc3c(Oc4ccc(S(C)(=O)=O)cc4)ncnc32)CC1",
    "MEASURE_UNIT": "µg/mL",
    "BOUND_SIGN": "<",
    "solubility kinetic": 1
  }
]

###

Assay: Cmax in mouse at 10 mg/kg, po
Format: ADME, organism-based
Set-up: dose 10 mg/kg, route oral
Conditions: in vivo
PARAMETER_MEASURED: Cmax (µM)

[
  {
    "CHEMICAL_STRING": "CC(C)OC(=O)N1CCC(n2ncc3c(Oc4ccc(S(C)(=O)=O)cc4)ncnc32)CC1",
    "MEASURE_UNIT": "µM",
    "DATA_VALUE": 13.2
  }
]

###

Experiment: AUC in mouse at 5 mg/kg, iv
Format: ADME, organism-based
Parameters: dose 5 mg/kg, route intravenous
Details: plasma

[
  {
    "CHEMICAL_STRING": "CC(C)OC(=O)N1CCC(n2ncc3c(Oc4ccc(S(C)(=O)=O)cc4)ncnc32)CC1",
    "AUC, ng·h/mL": 25300
  }
]

###

Reported IC20 values follow for various molecules
Molecular target: hERG (KCNH2) (Homo sapiens)
Sequence (Q12809 whole entry): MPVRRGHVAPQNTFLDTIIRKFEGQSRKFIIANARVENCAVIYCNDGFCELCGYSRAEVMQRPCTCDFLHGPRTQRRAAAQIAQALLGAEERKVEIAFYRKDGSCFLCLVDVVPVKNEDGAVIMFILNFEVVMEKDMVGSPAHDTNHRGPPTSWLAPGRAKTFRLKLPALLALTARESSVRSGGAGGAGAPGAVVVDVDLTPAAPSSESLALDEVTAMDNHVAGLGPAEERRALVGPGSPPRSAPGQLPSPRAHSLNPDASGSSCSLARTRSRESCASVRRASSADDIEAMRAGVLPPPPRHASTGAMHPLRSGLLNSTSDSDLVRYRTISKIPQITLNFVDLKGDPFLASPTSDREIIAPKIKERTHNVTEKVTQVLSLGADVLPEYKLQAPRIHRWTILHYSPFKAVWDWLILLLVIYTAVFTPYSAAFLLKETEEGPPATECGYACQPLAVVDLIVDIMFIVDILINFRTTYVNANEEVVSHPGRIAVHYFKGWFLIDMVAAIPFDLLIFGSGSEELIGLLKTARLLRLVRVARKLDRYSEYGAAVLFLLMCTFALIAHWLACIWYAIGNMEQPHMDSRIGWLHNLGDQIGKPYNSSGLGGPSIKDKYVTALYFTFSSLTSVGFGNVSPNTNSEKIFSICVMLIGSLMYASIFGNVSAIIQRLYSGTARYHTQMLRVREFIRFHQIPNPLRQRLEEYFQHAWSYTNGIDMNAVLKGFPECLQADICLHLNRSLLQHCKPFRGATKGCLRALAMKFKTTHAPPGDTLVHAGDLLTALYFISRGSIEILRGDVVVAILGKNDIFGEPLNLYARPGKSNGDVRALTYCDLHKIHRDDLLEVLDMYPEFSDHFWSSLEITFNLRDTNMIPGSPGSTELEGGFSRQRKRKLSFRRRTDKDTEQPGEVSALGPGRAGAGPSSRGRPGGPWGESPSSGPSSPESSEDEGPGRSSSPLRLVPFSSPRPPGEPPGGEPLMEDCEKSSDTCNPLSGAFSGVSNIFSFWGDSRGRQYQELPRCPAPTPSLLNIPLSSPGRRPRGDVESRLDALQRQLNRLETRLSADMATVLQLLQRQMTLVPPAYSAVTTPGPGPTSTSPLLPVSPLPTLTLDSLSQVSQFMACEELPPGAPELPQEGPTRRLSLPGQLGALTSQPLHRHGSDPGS
Assay: Inhibition of human ERG channel

[
  {
    "CHEMICAL_STRING": "CS(=O)(=O)c1ccc(Oc2ncnc3c2cnn3C2CCN(Cc3ccc(C(F)(F)F)cc3)CC2)cc1",
    "IC20, µM": 0.2
  },
  {
    "CHEMICAL_STRING": "CC(C)OC(=O)N1CCC(n2ncc3c(Oc4ccc(S(C)(=O)=O)cc4)ncnc32)CC1",
    "IC20, µM": 0.5
  },
  {
    "CHEMICAL_STRING": "CC(C)(C)OC(=O)N1CCC(n2ncc3c(Nc4ccc(S(C)(=O)=O)cc4F)ncnc32)CC1",
    "IC20, µM": 2.6
  },
  {
    "CHEMICAL_STRING": "CC(C)(C)OC(=O)N1CCC(n2ncc3c(Oc4ccc(S(C)(=O)=O)cc4)ncnc32)CC1",
    "IC20, µM": 2.7
  },
  {
    "CHEMICAL_STRING": "CC(C)CC(=O)N1CCC(n2ncc3c(Oc4ccc(S(C)(=O)=O)cc4)ncnc32)CC1",
    "IC20, µM": 2.7
  }
]

Data provenance is ChEMBL document CHEMBL3112399.
